Each recorded value in this set is attributed to patent US20080300298A1.

- Method notes: cytotoxicity assay (MTT)
- Assay type: cell-based
- Condition: human, CEM T-lymphoblastoid cells; CEM cells; read-out: Cytotoxicity (EC50-μM) in: CEM
Attribute measured: EC50 at 4 days (µM)
Expressed in µM, but write only the number.

Some compounds with known EC50 at 4 days results, for comparison:
- CCCc1ccc(O)c(-c2ccc(O)c(CCC)c2)c1 [drawing 44]: 10.4
- C=CCc1ccc2c(c1)-c1cc(CC=C)ccc1OC(C)(C)O2 [drawing 42]: 11.6

Please look at the following compound next.
// C=CCc1ccc(OC)c(-c2ccc(OC)c(CC=C)c2)c1 [drawing 45] : EC50 at 4 days value = 19.1
